Overview of recorded Activity for various molecules
test-target: Metabotropic glutamate receptor 5 (Homo sapiens) (UniProt P41594)
Sequence (P41594 21-1212 limits assumed): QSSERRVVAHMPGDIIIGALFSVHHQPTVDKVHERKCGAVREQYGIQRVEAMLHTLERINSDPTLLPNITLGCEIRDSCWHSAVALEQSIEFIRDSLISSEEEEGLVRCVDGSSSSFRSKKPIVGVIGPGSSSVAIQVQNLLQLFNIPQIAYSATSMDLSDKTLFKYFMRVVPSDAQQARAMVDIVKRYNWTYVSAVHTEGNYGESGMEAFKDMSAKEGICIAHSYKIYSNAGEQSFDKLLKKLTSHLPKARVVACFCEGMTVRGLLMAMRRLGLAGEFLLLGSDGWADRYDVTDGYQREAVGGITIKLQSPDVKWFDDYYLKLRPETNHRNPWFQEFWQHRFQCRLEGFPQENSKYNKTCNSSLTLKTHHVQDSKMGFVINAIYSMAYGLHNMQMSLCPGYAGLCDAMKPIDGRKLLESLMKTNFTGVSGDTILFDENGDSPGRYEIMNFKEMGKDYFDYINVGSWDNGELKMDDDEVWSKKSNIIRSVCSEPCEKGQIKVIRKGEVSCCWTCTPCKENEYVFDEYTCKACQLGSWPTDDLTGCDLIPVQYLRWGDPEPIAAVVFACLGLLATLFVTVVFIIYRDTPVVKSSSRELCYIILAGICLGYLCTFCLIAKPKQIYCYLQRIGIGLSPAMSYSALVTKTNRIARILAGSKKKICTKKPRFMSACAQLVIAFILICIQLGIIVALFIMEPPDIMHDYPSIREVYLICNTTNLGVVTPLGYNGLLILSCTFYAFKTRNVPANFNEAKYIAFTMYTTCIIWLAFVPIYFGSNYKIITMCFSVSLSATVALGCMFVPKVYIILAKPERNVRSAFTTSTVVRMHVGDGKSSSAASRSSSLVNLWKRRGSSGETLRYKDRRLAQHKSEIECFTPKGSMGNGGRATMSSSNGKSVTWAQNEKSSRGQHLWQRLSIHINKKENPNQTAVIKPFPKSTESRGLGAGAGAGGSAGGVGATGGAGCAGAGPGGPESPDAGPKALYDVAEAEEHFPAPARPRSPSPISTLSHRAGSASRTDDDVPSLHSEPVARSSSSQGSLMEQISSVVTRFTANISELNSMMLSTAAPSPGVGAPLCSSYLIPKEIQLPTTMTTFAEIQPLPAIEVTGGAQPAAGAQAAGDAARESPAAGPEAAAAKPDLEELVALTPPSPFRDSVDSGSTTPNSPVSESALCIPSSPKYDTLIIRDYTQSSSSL
experimental-details: Negative allosteric modulator activity at mGluR5 receptor expressed in HEK293A cells assessed as maximum glutamate-induced response preincubated for 140 secs before glutamate challenge by calcium fluorescence assay
Type: functional, cell-based
condition: HEK293-A
quantity-measured: Activity (%)

> print(dat)
                                   molecule  quantity.measured  result.units  readout.number
1  Cc1cccc(-c2noc(C3CCCN3C(=O)C3CCC3)n2)c1 (racemic)           Activity             %              34
2  Cc1cccc(-c2noc([C@H]3CCCCN3C(=O)c3cccs3)n2)c1           Activity             %             0.9
3  O=C(C1CCC1)N1CCC[C@@H](c2nc(-c3ccccn3)no2)C1           Activity             %              19
4  Cc1cccc(-c2noc([C@H]3CCCCN3C(=O)c3ccc(F)cc3)n2)c1           Activity             %              47
5  O=C(C1CCC1)N1CCC[C@@H](c2nc(-c3cccc(Cl)c3)no2)C1           Activity             %              18

----------
test-target: Metabotropic glutamate receptor 5 (Rattus norvegicus)
Sequence (P31424 whole entry, looked up): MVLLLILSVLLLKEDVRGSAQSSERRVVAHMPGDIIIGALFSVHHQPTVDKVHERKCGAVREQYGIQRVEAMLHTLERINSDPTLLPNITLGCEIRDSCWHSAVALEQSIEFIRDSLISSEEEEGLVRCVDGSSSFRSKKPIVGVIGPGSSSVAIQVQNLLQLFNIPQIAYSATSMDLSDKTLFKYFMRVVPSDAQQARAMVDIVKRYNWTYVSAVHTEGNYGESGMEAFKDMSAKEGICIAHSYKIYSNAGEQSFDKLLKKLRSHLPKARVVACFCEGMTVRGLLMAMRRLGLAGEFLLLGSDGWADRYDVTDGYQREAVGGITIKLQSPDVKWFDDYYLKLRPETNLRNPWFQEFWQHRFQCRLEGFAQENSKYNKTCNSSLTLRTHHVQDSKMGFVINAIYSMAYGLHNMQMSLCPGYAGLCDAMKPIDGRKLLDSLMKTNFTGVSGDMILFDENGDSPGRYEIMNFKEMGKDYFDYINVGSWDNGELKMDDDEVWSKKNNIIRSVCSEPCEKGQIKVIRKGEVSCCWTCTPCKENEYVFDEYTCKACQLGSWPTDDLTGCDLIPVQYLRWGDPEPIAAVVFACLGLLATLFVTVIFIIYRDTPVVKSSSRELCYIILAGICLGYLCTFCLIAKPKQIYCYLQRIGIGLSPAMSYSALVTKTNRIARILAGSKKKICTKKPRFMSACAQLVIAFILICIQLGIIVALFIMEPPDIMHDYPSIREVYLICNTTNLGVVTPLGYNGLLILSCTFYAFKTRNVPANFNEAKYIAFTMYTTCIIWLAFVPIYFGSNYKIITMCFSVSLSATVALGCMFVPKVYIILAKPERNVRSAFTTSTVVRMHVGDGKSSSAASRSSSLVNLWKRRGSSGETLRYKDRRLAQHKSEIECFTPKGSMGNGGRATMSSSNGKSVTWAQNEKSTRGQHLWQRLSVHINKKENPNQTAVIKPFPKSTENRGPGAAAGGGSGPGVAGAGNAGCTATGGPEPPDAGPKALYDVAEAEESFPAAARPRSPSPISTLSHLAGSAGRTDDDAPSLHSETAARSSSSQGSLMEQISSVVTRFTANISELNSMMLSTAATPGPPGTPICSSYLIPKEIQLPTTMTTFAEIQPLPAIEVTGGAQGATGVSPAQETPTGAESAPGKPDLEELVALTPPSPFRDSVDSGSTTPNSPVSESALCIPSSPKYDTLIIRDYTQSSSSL
experimental-details: Positive allosteric modulator activity at mGluR5 receptor expressed in HEK293A cells assessed as effect on glutamate-induced calcium flux preincubated for 140 secs before glutamate challenge by calcium fluorescence assay
Assay type: functional, cell-based, HEK293-A
pEC50: −log10 of the molar value.
# cutoff 6 applies to pEC50; >= gives fulfilled, < gives not fulfilled

> print(dat)
                                   compound  class.assignment
1  O=C(c1ccc(F)c(F)c1)N1CCCC1c1nc(-c2cccc(F)c2)no1 (stereo not given)     not fulfilled
2  O=C(c1ccc(F)cc1F)N1CCCC[C@@H]1c1nc(-c2cccc(F)c2)no1     not fulfilled
3  O=C(C1CCC1)N1CCCC1c1nc(-c2ccc(F)cc2)no1 (racemic)     not fulfilled
4  O=C(c1cccs1)N1CCCC1c1nc(-c2cccc(F)c2)no1 (stereo not given)         fulfilled
5  O=C(c1cccc(F)c1)N1CCCC[C@@H]1c1nc(-c2cccc(F)c2)no1         fulfilled
6  O=C(c1cccc(F)c1)N1CCCC1c1nc(-c2cccc(F)c2)no1 (stereo not given)     not fulfilled
7  O=C(C1CCC1)N1CCCC[C@@H]1c1nc(-c2cccc(F)c2)no1 (stereo in doubt; 22b)         fulfilled

----------
test-target: Metabotropic glutamate receptor 5 (Homo sapiens)
experimental-details: Negative allosteric modulator activity at mGluR5 receptor expressed in HEK293A cells assessed as maximum glutamate-induced response preincubated for 140 secs before glutamate challenge by calcium fluorescence assay
Assay type: functional, cell-based
condition: HEK293-A
quantity-measured: Activity (%)

> print(dat)
                                    compound  quantity.measured  result.units  readout.number
 1  O=C(C1CCC1)N1CCC[C@H](c2nc(-c3ccccn3)no2)C1           Activity             %              33
 2  O=C(C1CCC1)N1CCCC1c1nc(-c2cccc(Cl)c2)no1 (racemic)           Activity             %              25
 3  Cc1cccc(-c2noc([C@H]3CCCCN3C(=O)C3CCCCC3)n2)c1           Activity             %             9.2
 4  O=C(C1CCC1)N1CCC[C@H](c2nc(-c3cccs3)no2)C1           Activity             %              67
 5  O=C(C1CCC1)N1CCC[C@H](c2nc(-c3cccc(F)c3)no2)C1           Activity             %              31
 6  Cc1cccc(-c2noc([C@H]3CCCN(C(=O)C4CCC4)C3)n2)c1           Activity             %             2.5
 7  O=C(C1CCC1)N1CCC[C@@H](c2nc(-c3cccc(F)c3)no2)C1           Activity             %              60
 8  Cc1cccc(-c2noc([C@@H]3CCCN(C(=O)C4CCC4)C3)n2)c1           Activity             %              14
 9  COc1cccc(-c2noc([C@@H]3CCCN(C(=O)C4CCC4)C3)n2)c1           Activity             %              54
10  Cc1cccc(-c2noc([C@H]3CCCCN3C(=O)c3cccc(F)c3)n2)c1           Activity             %              16
